viability, T/C values, listed per item
System: 556581-035-R-J1-PDC complex spheroid growth
Assay: Anticancer human tumor 556581-035-R-J1-PDC patient-derived ovarian carcinoma cell line growth inhibition [Asc]
Details: second compound 0.3 µM; first compound 0.00316 µM; stronger effect = lower value
# value in %; strip the unit string

As a guide, the following entries are already answered.
COc1c(OCCCN2CCOCC2)ccc2c3n(c(=NC(=O)c4cnc(N)nc4)nc12)CCN3 + CCN1C(C(=O)NC23CCC(C(=O)O)(CC2)CC3)C(c2cccc(Cl)c2F)C2(C(=O)Nc3cc(Cl)ccc32)C12CCCCC2 | 76.7
NC1CCC(NC2CC2c2ccccc2)CC1 (stereo not drawn) + CCN1C(C(=O)NC23CCC(C(=O)O)(CC2)CC3)C(c2cccc(Cl)c2F)C2(C(=O)Nc3cc(Cl)ccc32)C12CCCCC2 | 105

Challenge: Specify measured viability, T/C for O=C(c1ccc(F)c(F)c1Nc1ccc(I)cc1F)N1CC(O)([C@@H]2CCCCN2)C1 + CCN1C(C(=O)NC23CCC(C(=O)O)(CC2)CC3)C(c2cccc(Cl)c2F)C2(C(=O)Nc3cc(Cl)ccc32)C12CCCCC2 .
Response given: 106

====

The entries below are paired with their reported viability, T/C.
Test system: 556581-035-R-J1-PDC complex spheroid growth
Test: Anticancer human tumor 556581-035-R-J1-PDC cell line growth inhibition [Asc];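 further: spheroids exposed to agents for 7 days before viability read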
Settings: second compound 1 µM; first compound 0.949 µM; stronger effect = lower value
The reply should contain only the number, in %.

Worked cases, viability, T/C given:
CCN1C(C(=O)NC23CCC(C(=O)O)(CC2)CC3)C(c2cccc(Cl)c2F)C2(C(=O)Nc3cc(Cl)ccc32)C12CCCCC2 (centres undefined) + CNC(C)C(=O)NC1CN(S(=O)(=O)c2cccc(S(=O)(=O)N3CCC4CCC(C(=O)NC(c5ccccc5)c5ccccc5)N4C(=O)C(NC(=O)C(C)NC)C3)c2)CCC2CCC(C(=O)NC(c3ccccc3)c3ccccc3)N2C1=O | 68
Cc1nc(N2CCC3(CC2)COC(C)C3N)c(CO)nc1Sc1ccnc(N)c1Cl (centres undefined) + Cc1c(S(C)(=O)=O)c(-c2cc(F)cc(N3CCN(c4ccc(NS(=O)(=O)c5ccc(NC(CCN6CCC(C(=O)OCCCP(=O)(O)O)CC6)CSc6ccccc6)c(S(=O)(=O)C(F)(F)F)c5)cc4)CC3)c2)c(-c2ccc(Cl)cc2)n1C(C)C | 31.2
Cc1nc(N2CCC3(CC2)COC(C)C3N)c(CO)nc1Sc1ccnc(N)c1Cl (centres undefined) + CNC(C)C(=O)NC1CN(S(=O)(=O)c2cccc(S(=O)(=O)N3CCC4CCC(C(=O)NC(c5ccccc5)c5ccccc5)N4C(=O)C(NC(=O)C(C)NC)C3)c2)CCC2CCC(C(=O)NC(c3ccccc3)c3ccccc3)N2C1=O | 40.8

API: the following record is the query input.
Challenge: Given the molecule CCN1C(C(=O)NC23CCC(C(=O)O)(CC2)CC3)C(c2cccc(Cl)c2F)C2(C(=O)Nc3cc(Cl)ccc32)C12CCCCC2 (centres undefined) + Cc1c(S(C)(=O)=O)c(-c2cc(F)cc(N3CCN(c4ccc(NS(=O)(=O)c5ccc(NC(CCN6CCC(C(=O)OCCCP(=O)(O)O)CC6)CSc6ccccc6)c(S(=O)(=O)C(F)(F)F)c5)cc4)CC3)c2)c(-c2ccc(Cl)cc2)n1C(C)C , write its reported viability, T/C.
Response given: 60.2
